Origin of values: patent US20190127480A1

The entries below come with measured EC50 [M] hPBMC Proliferation values attached.
# TARGET OR TEST SYSTEM: human CD3 expressed on cells (Jurkat cells; human T-cells of PBMC) (human, UniProt P09693 23-182; P20963 22-164)
# Sequence (chain, as listed by the source, chain 1 of 4): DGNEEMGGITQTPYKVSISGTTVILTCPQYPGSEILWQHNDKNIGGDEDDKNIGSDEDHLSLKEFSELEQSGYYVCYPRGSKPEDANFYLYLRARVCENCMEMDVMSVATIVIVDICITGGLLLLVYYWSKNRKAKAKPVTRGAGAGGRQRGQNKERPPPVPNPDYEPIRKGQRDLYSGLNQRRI
# Sequence (chain, as listed by the source, chain 2 of 4): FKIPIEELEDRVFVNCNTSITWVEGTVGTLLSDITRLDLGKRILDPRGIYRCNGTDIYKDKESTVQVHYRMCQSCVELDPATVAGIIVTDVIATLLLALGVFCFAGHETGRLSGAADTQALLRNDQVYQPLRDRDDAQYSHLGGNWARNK
# Sequence (P09693 23-182, chain 3 of 4): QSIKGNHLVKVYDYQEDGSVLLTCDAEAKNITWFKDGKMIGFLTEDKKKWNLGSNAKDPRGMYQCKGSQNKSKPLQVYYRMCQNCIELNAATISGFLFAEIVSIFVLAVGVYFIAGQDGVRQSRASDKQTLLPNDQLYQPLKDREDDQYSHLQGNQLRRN
# Sequence (P20963 22-164, chain 4 of 4): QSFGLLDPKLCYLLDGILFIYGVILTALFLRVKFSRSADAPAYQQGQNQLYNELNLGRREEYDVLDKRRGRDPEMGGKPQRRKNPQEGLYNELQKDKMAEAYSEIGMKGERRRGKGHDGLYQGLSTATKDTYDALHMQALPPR
# TEST DESCRIPTION: cell-based or functional assay
Please append the unit to your numeric answer.

Reported EC50 [M] hPBMC Proliferation ( H1H5793B (antibody, human IgG1, V domains shown, H1H: human IgG1 Fc) VH: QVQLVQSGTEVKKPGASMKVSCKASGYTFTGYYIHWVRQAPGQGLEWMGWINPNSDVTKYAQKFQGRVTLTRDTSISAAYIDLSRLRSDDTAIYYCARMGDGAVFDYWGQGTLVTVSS VL: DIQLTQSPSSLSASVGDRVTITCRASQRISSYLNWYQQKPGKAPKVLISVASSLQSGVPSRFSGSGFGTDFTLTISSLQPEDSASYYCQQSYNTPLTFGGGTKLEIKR ) = 3.28e-12 M

Reported EC50 [M] hPBMC Proliferation ( H1H5791B (antibody, human IgG1, V domains shown, H1H: human IgG1 Fc) VH: QVQLVESGAEVKKPGASVKVSCKTSGYTLSGYYMHWMRQAPGQGLEWMGWINPKSGVTNYAQKFQDRVAMTRDTSISTAYMELSRLRSDDTAVYYCARMGDGAVFDFWAQGTLVTVSS VL: DIQLTQSPSSLSASVGDRVTITCRASQRISSFLNWYQQKPGKAPKLLIYTASNLQNGVPSRFSGSGSGTDFTLTISSLQPEDFATYYCQQSYRTPLTFGGGTKLEIKR ) = 1.75e-12 M

Reported EC50 [M] hPBMC Proliferation ( H1H5755B (antibody, human IgG1, V domains shown, H1H: human IgG1 Fc) VH: EVQLVESGGGVVQPGRSLRLSCAASGFTFSNYGMHWVRQAPGKGLEWVTVILHDGSYKYYADSVKGRFTISRDNSKNTLHLQMNSLRTEDTAVYYCAKGPMFRGVPYNHYYGMDVWGQGTTVTVSS VL: DIQMTQSPSSLSASVGDRVTITCRASQGIRNDLGWYQQKPGKAPKRLIYAASSLQSGVSSRFSGSGSGTEFTLTISSLQPEDFATYYCLQHNSYPYTFGQGTKVEIKR ) = 4.24e-12 M

Reported EC50 [M] hPBMC Proliferation ( H1H5771P (antibody, human IgG1, V domains shown) VH: EVQLVESGGGLVQPGRSLRLSCAASGFSFDNYAMHWVRQAPGQGLEWVSGISWNSGSRDYADSVKGRFTISRDNARNSLFLQMNSLSNEDTAMYYCAKDKSGYGSYFYGMDVWGQGTTVTVSS VL: EIVLTQSPGTLSLSPGDRATLSCRASQSIRNIYLAWYQQKPGQAPRLLIHGASTRATGIPDRFSGSGSGTDFTLTISRLEPEDFAVYYCQQRVSLPYTFGQGTKLEIK ) = 6.35e-12 M

Reported EC50 [M] hPBMC Proliferation ( H1H5752P (antibody, human IgG1, V domains shown, H1H: human IgG1 Fc) VH: QVQLVESGGGVVQPGRSLRPSCAASGFSFRDYGMHWVRQAPGKGLEWMAHIWYNGKNKYYADSVKGRFTISRDNSKNTLYLQMNSLRPEDTAVYYCARDGVSARGTPFDYWGQGTLVTVSS VL: ETTLTQSPAFMSAAPGDKVSISCIASQYIDDDVNWYQQKPGETAIFIIQEASTLVPGISPRFSGSGYGTHFTLTINNIDSEDAAFYFCLQHDNFPYTFGQGTKLEIK ) = 1.09e-12 M

Reported EC50 [M] hPBMC Proliferation ( H1H5764P (antibody, human IgG1, V domains shown, H1H: human IgG1 Fc) VH: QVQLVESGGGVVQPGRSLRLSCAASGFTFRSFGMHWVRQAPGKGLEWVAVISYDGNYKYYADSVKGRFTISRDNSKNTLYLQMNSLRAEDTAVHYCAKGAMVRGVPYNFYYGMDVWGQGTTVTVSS VL: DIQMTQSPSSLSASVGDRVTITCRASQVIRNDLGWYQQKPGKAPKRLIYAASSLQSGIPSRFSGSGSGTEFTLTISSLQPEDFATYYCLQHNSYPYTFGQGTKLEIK ) = 3.27e-13 M

Reported EC50 [M] hPBMC Proliferation ( H1H5763P (antibody, human IgG1, V domains shown, H1H: human IgG1 Fc) VH: QVQLVESGGGVVQPGRSLRLSCAASGLTFSSYGMHWVRQAPGKGLEWVAVISYDGSNKYYTDSVKGRFTISRDNSKNTLYLQMNSLRAEDTAVYYCAKGAMVRGVPYNYYYGMDVWGQGTTVTVSS VL: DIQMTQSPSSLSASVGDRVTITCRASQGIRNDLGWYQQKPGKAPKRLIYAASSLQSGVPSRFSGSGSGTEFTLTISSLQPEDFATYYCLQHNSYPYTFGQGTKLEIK ) = 3.11e-13 M

Reported EC50 [M] hPBMC Proliferation ( H1H5798B (antibody, human IgG1, V domains shown, H1H: human IgG1 Fc) VH: QVQLVQSGGGLVKPGGSLRLSCAASGFTFSSYDMSWVRQAPGKGLEWVSYISSSGNTIHYADSVKGRFTISRDNSKNSLYLQMNSLRAEDTAVYYCAKAGPATVTRRYYYYYGLDVWGQGTTVTVSS VL: DIVMTQSPSSLSASVRDRVTITCRASQRISSYLNWFQQKPGKAPKVLIYTASSLQNGVPSRFSGSGSGTDFTLTISSLQPEDFATYYCQQSYRTPLTFGGGTKVEIKR ) = 2.59e-12 M

Reported EC50 [M] hPBMC Proliferation ( H1H5786B (antibody, human IgG1, V domains shown, H1H: human IgG1 Fc) VH: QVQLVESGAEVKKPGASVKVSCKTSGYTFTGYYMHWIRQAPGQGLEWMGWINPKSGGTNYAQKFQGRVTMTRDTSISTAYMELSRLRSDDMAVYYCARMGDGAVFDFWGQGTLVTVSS VL: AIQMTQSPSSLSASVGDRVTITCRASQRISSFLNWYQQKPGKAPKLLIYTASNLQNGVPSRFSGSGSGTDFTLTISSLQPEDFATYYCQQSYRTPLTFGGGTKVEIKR ) = 1.79e-12 M

Reported EC50 [M] hPBMC Proliferation ( H1H5778P (antibody, human IgG1, V domains shown, H1H: human IgG1 Fc) VH: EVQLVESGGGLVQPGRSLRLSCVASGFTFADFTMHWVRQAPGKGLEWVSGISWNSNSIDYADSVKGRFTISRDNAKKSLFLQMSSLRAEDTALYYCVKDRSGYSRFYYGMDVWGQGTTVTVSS VL: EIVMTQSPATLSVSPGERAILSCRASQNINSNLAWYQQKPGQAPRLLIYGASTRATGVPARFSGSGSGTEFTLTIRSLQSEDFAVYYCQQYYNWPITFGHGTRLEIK ) = 5.04e-12 M
